# PROTOCOL NOTES: Pharmacokinetics of nafamostat in rats after intravenous injection and oral administration (LC-MS/MS, non-compartmental)
# Type: in vivo
# PARTICULARS: male, Sprague-Dawley, rat, plasma, po, 20 mg/kg, oral 20 mg/kg, vehicle 2: 10% DMSO + 10% Tween 80
PROPERTY LABEL: bioavailability
Number first, unit second: that is the form wanted.

stdin: Fill blank: measured bioavailability of the molecule N=C(N)c1ccc2cc(OC(=O)c3ccc(N=C(N)N)cc3)ccc2c1 [nafamostat] is ____.
stdout: 1.59%

----------
# PROTOCOL NOTES: Pharmacokinetics of nafamostat in rats after intravenous injection and oral administration (LC-MS/MS, non-compartmental)
# Type: in vivo
# PARTICULARS: male, Sprague-Dawley, rat, plasma, po, 20 mg/kg, oral 20 mg/kg, vehicle 2: 10% DMSO + 10% Tween 80, read-out: C0 or Cmax
PROPERTY LABEL: Cmax (ng/mL)
Lab book: enter the figure in ng/mL, no units written.

stdin: Fill blank: measured Cmax of the compound N=C(N)c1ccc2cc(OC(=O)c3ccc(N=C(N)N)cc3)ccc2c1 is ____.
stdout: 33.2
